experimental.setup: in 1-propoxy-2-propanol, 298.15 K
So I've got a bunch of molecules here, and I need their solubility (mole fraction) values.
Numbers only.

1. O=P(NCc1cccc(CNP(=O)(Oc2ccccc2)Oc2ccccc2)c1)(Oc1ccccc1)Oc1ccccc1    0.000636

Here's the next entry for you.
## Task Please give the measured solubility (mole fraction) for this molecule: O=P(Oc1ccccc1)(Oc1ccccc1)N1CCN(P(=O)(Oc2ccccc2)Oc2ccccc2)CC1
## Result 0.000445

###

So I've got a bunch of compounds here, and I need their solubility (mole fraction) values.
experimental.setup: in 1-methoxy-2-propanol, 303.15 K
Give bare numbers.

1. O=P(NCc1cccc(CNP(=O)(Oc2ccccc2)Oc2ccccc2)c1)(Oc1ccccc1)Oc1ccccc1    0.000936

Here's the next entry for you.
## Task Please give the measured solubility (mole fraction) for this compound: O=P(Oc1ccccc1)(Oc1ccccc1)N1CCN(P(=O)(Oc2ccccc2)Oc2ccccc2)CC1
## Result 0.000589

###

experimental.setup: in 2-(2-methoxypropoxy) propanol, 333.15 K
property.name: solubility (mole fraction)
One number for each entry.

1. O=P(Oc1ccccc1)(Oc1ccccc1)N1CCN(P(=O)(Oc2ccccc2)Oc2ccccc2)CC1    0.00408

Here's the next entry for you.
## Task Please give the measured solubility (mole fraction) for this molecule: O=P(NCc1cccc(CNP(=O)(Oc2ccccc2)Oc2ccccc2)c1)(Oc1ccccc1)Oc1ccccc1
## Result 0.0116

###

experimental.setup: in 1-propoxy-2-propanol, 318.15 K
So I've got a bunch of compounds here, and I need their solubility (mole fraction) values.
One number for each entry.

1. O=P(NCc1cccc(CNP(=O)(Oc2ccccc2)Oc2ccccc2)c1)(Oc1ccccc1)Oc1ccccc1    0.00144

## Task Please give the measured solubility (mole fraction) for this compound: O=P(Oc1ccccc1)(Oc1ccccc1)N1CCN(P(=O)(Oc2ccccc2)Oc2ccccc2)CC1
## Result 0.00112

###

experimental.setup: in 1-propoxy-2-propanol, 338.15 K
property.name: solubility (mole fraction)
Numbers only.

1) O=P(Oc1ccccc1)(Oc1ccccc1)N1CCN(P(=O)(Oc2ccccc2)Oc2ccccc2)CC1    0.00275

Here's the next entry for you.
## Task Please give the measured solubility (mole fraction) for this compound: O=P(NCc1cccc(CNP(=O)(Oc2ccccc2)Oc2ccccc2)c1)(Oc1ccccc1)Oc1ccccc1
## Result 0.00316

###

experimental.setup: in 1-methoxy-2-propanol, 343.15 K
property.name: solubility (mole fraction)
Answers are plain numbers.

Please give solubility (mole fraction), item by item, for the list that follows.
1. O=P(Oc1ccccc1)(Oc1ccccc1)N1CCN(P(=O)(Oc2ccccc2)Oc2ccccc2)CC1
2. O=P(NCc1cccc(CNP(=O)(Oc2ccccc2)Oc2ccccc2)c1)(Oc1ccccc1)Oc1ccccc1

## Result
1. 0.00457
2. 0.00432

###

experimental.setup: in 2-(2-methoxypropoxy) propanol, 313.15 K
property.name: solubility (mole fraction)
One number for each entry.

1) O=P(NCc1cccc(CNP(=O)(Oc2ccccc2)Oc2ccccc2)c1)(Oc1ccccc1)Oc1ccccc1    0.00584

Here's the next entry for you.
## Task Please give the measured solubility (mole fraction) for this compound: O=P(Oc1ccccc1)(Oc1ccccc1)N1CCN(P(=O)(Oc2ccccc2)Oc2ccccc2)CC1
## Result 0.00199

###

So I've got a bunch of molecules here, and I need their solubility (mole fraction) values.
experimental.setup: in 1-methoxy-2-propanol, 313.15 K
Answers are plain numbers.

1) O=P(Oc1ccccc1)(Oc1ccccc1)N1CCN(P(=O)(Oc2ccccc2)Oc2ccccc2)CC1    0.00102

Here's the next entry for you.
## Task Please give the measured solubility (mole fraction) for this molecule: O=P(NCc1cccc(CNP(=O)(Oc2ccccc2)Oc2ccccc2)c1)(Oc1ccccc1)Oc1ccccc1
## Result 0.00138
